# Tested on: SF-295 CNS
# Assay Comment: NCI-60 one-dose screen, 48 h
# Assay Context: 10 µM unless noted
# Experimental: Cells are grown in 96 well plates and exposed to the test compound for 48 hours. Compounds are tested at a single concentration, which is 10^-5 M for most compounds. The reported endpoint is percent growth (GI% or GIPRCNT), where numbers from 0 - 100% represent growth inhibition, and numbers from -100% - 0 represent cell death. For example, a value of 40 represents 60% growth inhibition. A value of 0 means no net growth occurred over the course of the experiment. […]
Compounds without any hit were thinned out: in the full panel of roughly 83,000, 20% have a hit. Calls of active or inactive are those of the source. The calls were made as follows: active = growth percent below 10; inactive = the rest.
Use one of these outcomes when replying: y (active), n (inactive)

Worked examples follow.
Compound: C#C[C@]1(O)CC[C@H]2[C@@H]3CC=C4c5sc(N6CCN(C)CC6)nc5CC[C@]4(C)[C@H]3CC[C@@]21C
Class: y

Compound: NS(=O)(=O)c1ccc(CCn2c(-c3ccc(C(=O)O)cc3)nc(-c3ccccc3)c2-c2ccccc2)cc1
Class: n

Compound: CC1=Cc2ccccc2OC12C=Cc1ccccc1O2 (centres undefined)
Class: n

Compound: COc1ccc(C(=NNS(=O)(=O)c2ccc(C)cc2)c2ccccc2)cc1OC
Class: n

Compound: NC(=O)n1c(=O)n(-c2cccc(C(F)(F)F)c2)c(=O)c2cc(-c3ccc(F)cc3F)ccc21
Class: y

Qu. Outcome? CNC(=O)c1cc(Oc2ccc3c(c2)sc2nc(-c4ccc(N(C)C)cc4)cn23)ccn1
Ans. y

Qu. Outcome? Cc1ccc(CSC2=C(Cl)CN(c3ccc(Cl)cc3)C2=O)cc1
Ans. n

Qu. Outcome? COC(=O)CCCNCCCn1ccc2cc(NCc3cccc(-c4ccccc4)c3C)ccc21
Ans. n

Qu. Outcome? O=C(CSc1nnc(-c2ccc(Cl)cc2)n1-c1ccccc1)Nc1ccc(Cl)cc1
Ans. n

Qu. Outcome? CCc1cc(OC(=O)N2CCC(N3CCCCC3)CC2)ccc1Nc1cc(-c2ccc(-n3cccn3)cc2)[nH]n1
Ans. n

Qu. Outcome? CC[C@]12C=CCN3CC[C@]4(C(=C(C(=O)OC)C1)Nc1cc5c(cc14)[C@@H]1[C@H](O5)[C@@H](O)[C@@]4(CC)CC(C(=O)OC)=C5Nc6cc(O)ccc6[C@@]56CCN1C46)C32 (some centres undefined)
Ans. y

Qu. Outcome? Cc1csc(/N=C(N)/N=C(\N)c2cccc(Br)c2)n1
Ans. n

Qu. Outcome? CC1CC(=O)C2=C(C1)Nc1ccc(Br)cc1CC2c1c[nH]c2ccc(Br)cc12 (centres undefined)
Ans. y

Qu. Outcome? C[C@@H]1OCC2(CCN(c3cnc(C(=O)Nc4cc(F)cc5cccnc45)cn3)CC2)[C@@H]1N
Ans. n

Qu. Outcome? CCCCN1C(=O)/C(=c2\sc3n(c2=O)C2C(NN=3)N(CC)C(=O)N2CC)c2cccc(C)c21 (centres undefined)
Ans. n

Qu. Outcome? O=C(CSc1nnc(-c2ccc(Cl)cc2)n1-c1ccccc1)Nc1ccccc1Cl
Ans. n

Qu. Outcome? C#CCOc1ccccc1/C=N/Nc1nc(-c2ccc(Cl)cc2)cs1
Ans. n

Qu. Outcome? COc1cccc2c1C=CC1(O2)Oc2cccc(OC)c2C=C1C (centres undefined)
Ans. y

Qu. Outcome? COc1ccccc1N1CCN(C2=C(Cl)C(=O)c3ncccc3C2=O)CC1
Ans. n

Qu. Outcome? Cc1ccc(NC(=O)Nc2nc3ccc([N+](=O)[O-])cc3s2)cc1
Ans. y

Qu. Outcome? O=C(/C=C/Nc1ccc(S(=O)(=O)Nc2ncccn2)cc1)c1ccc(N=Cc2c(O)[nH]c3ccccc23)cc1
Ans. n

Qu. Outcome? C/C(=N\NC(=O)/C=C/CC(=O)O)c1nnn(-c2ccc([N+](=O)[O-])cc2)c1C
Ans. n

Qu. Outcome? Cc1ccc(OCc2occc2C(=O)N2CCOCC2)cc1
Ans. n

Qu. Outcome? COc1cc(C(=O)c2cc(C(C)=O)c3ccc(C)cn23)cc(OC)c1OC
Ans. y

Qu. Outcome? CN1CCN(c2ccc(Nc3nc(NCCCNS(=O)(=O)c4cccc(F)c4)c4sccc4n3)cc2)CC1
Ans. y

Qu. Outcome? Cn1cc(-c2cc3ncnc(Nc4ccc(CC(=O)Nc5nc(C(C)(C)C)cs5)cc4)c3s2)cn1
Ans. n

Qu. Outcome? CN1CCN(Cc2ccc(NC(=O)c3cncc(C#Cc4cnc5ccc(OCCCS(C)(=O)=O)nn45)c3)cc2C(F)(F)F)CC1
Ans. y

###

# Test system: NCI-H460 lung
# Assay Comment: NCI-60 one-dose screen, 48 h
# Assay Context: 10 µM unless noted
About 83,000 compounds went through this panel and 20% of them were active in at least one assay; those are over-represented in the sample as a whole. Active and inactive are the calls of the source. The calls were made as follows: active = growth percent below 10; inactive = the rest.
Use one of these outcomes when replying: 1 (active), -1 (inactive)

Worked examples follow.
Compound: O=C(CN1CCN(c2cc(=O)[nH]c3ccc(F)cc23)CC1)N(c1ccccc1)c1ccccc1
Class: -1
--
Compound: CNC(=O)c1cc(Oc2ccc3c(c2)sc2nc(-c4ccc(N(C)C)cc4)cn23)ccn1
Class: 1
--
Compound: O=C1C(SCc2ccccc2)=C(Cl)CN1c1ccccc1
Class: -1

Qu. Outcome? CC1CC(=O)C2=C(C1)Nc1ccc(Br)cc1CC2c1c[nH]c2ccc(Br)cc12 (stereo not given)
Ans. -1

Qu. Outcome? O=C(CSc1nnc(-c2ccc(Cl)cc2)n1-c1ccccc1)Nc1ccccc1Cl
Ans. -1

Qu. Outcome? CCCc1[nH]c(-c2cc(N)ccc2Cl)c2c1C(=O)CCCC2
Ans. -1

Qu. Outcome? CCn1c2ccc(/C=N/N(C)S(=O)(=O)CCN(C)C)cc2c2cc(/C=N/N(C)S(=O)(=O)CCN(C)C)ccc21
Ans. -1

Qu. Outcome? Cc1c(C(=O)/C=C/c2ccc(Cl)cc2)nnn1-c1ccc2oc(=O)ccc2c1
Ans. -1

Qu. Outcome? CCCN1C=C/C(=C\C(=O)n2ccc3ccccc32)c2ccccc21
Ans. -1

Qu. Outcome? CCC(=C(c1ccc(OCCN2CCCCCC2)cc1)c1ccc(OCCN2CCCCCC2)cc1)c1ccc(Cl)cc1
Ans. 1

Qu. Outcome? Cn1c(SCC(=O)c2ccc(F)cc2)nc2ccccc2c1=O
Ans. -1

Qu. Outcome? Brc1cc(-c2cc(-c3ccc4c(c3)OCCO4)[nH]n2)cs1
Ans. -1

Qu. Outcome? CC(Nc1c(C#N)cnc2ccc(-c3cncc(O)c3)cc12)c1ccccc1 (stereo not given)
Ans. 1

Qu. Outcome? CCNC(=O)Oc1ccc(/C(=C(/C)c2ccc(Cl)cc2)c2ccc(OCCN3CCCCCC3)cc2)cc1
Ans. 1

Qu. Outcome? CN(C)S(=O)(=O)c1ccc(-c2nc(C(Cl)Cl)nc3cc(-c4ccc(F)cc4)nn23)cc1
Ans. 1

Qu. Outcome? Cc1csc(/N=C(N)/N=C(\N)c2cccnc2)n1
Ans. -1

Qu. Outcome? C[C@]12CC[C@H]3[C@@H](CC=C4C[C@@H](O)CC[C@@]43C)[C@@H]1CC[C@@H]2[C@](C)(O)CCc1cccnc1
Ans. -1

Qu. Outcome? CCCCSC1=C(Cl)CN(c2ccccc2)C1=O
Ans. -1

Qu. Outcome? Cc1ccc(C(=O)CSc2nc3ccccc3c(=O)n2C)cc1
Ans. -1

Qu. Outcome? NC1=NC2(CCCC2)N(c2ccc(S(=O)(=O)Nc3nccs3)cc2)C(N)=N1
Ans. -1

###

# System: PC-3 prostate
# Assay Comment: NCI-60 one-dose screen, 48 h (100 = growth as untreated, 0 = no growth, -100 = all killed)
# Assay Context: 10 µM unless noted
This is part of a sample that, as a whole, favours compounds with a hit. Of some 83,000 tested, about 20% had one in any assay. Active and inactive are the calls of the source. How the source made its calls: active means growth percent below 10; inactive means the rest.
Readout Kind: growth

Consider the worked cases shown below.
Molecule: Clc1ccc2[nH]cc(-c3cncn3CCc3ccc4c(c3)OCO4)c2c1
Tested Target: PC-3 prostate
growth: 51% (inactive)
//
Molecule: CCOC(=O)c1cccnc1Nc1ccc(NC(=O)Nc2ccc(Cl)c(C(F)(F)F)c2)cc1
Tested Target: PC-3 prostate
growth: 7.22% (active)
//
Molecule: CC(=O)N1N=C(c2cc3ccccc3oc2=O)CC1c1cn(-c2ccccc2)nc1-c1ccc(C)cc1 (stereo not drawn)
Tested Target: PC-3 prostate
growth: 93% (inactive)
//
Molecule: CCc1cc(OC(=O)N2CCN(CCC(C)(COC(C)(C)C)COC(C)(C)C)CC2)ccc1Nc1cc(-c2ccc(-n3cccn3)cc2)[nH]n1
Tested Target: PC-3 prostate
growth: 53.9% (inactive)
//
Molecule: COc1ccc(N2CCN(C3=C(Cl)C(=O)c4ncccc4C3=O)CC2)cc1
Tested Target: PC-3 prostate
growth: 68.1% (inactive)

Qu. Kindly state the measured growth obtained for CCCNNC(=O)c1ccc(-c2ccc(NC(=O)CCCCCCC(=O)N[C@H](C(=O)N3C[C@H](O)C[C@H]3C(=O)N[C@@H](C)c3ccc(-c4scnc4C)cc3)C(C)(C)C)cc2)cc1 with PC-3 prostate.
Ans. 37.2% (inactive)

Qu. Kindly state the measured growth obtained for CC(=O)C1=C(C)NC(NNc2ccccc2)=NC1c1ccc([N+](=O)[O-])cc1 (stereo not drawn) with PC-3 prostate.
Ans. 79.3% (inactive)

Qu. Kindly state the measured growth obtained for CCOC(=O)c1cccc(NC2=C(Cl)C(=O)c3nc(C)ccc3C2=O)c1 with PC-3 prostate.
Ans. 82% (inactive)
